- Test system: Fibroblast
- RUN_DESCRIPTION: Multiplex assay against human fibroblast
- Type: toxicity, cell-based
- CONDITION_CONTEXT: 48 h, 1 µM, compound concentration 1 uM, replicate 1
ASSAY_METRIC: Population Fragmented Nuclei (%)

- COc1cc(-n2cnc3cc(-c4ccc(Cl)cc4)sc3c2=O)ccc1OCCN1CCCC1: 39
- OC1(c2ccc(Cl)cc2)CCN(Cc2c[nH]c3ccccc23)CC1: 33
- Cc1c(-c2ccc(O)cc2)n(Cc2ccc(OCCN3CCCCCC3)cc2)c2ccc(O)cc12 [BAZEDOXIFENE]: 42
- CC(C)(O)CNc1ncc(-c2ccnc(Nc3ccnc(Cl)c3)n2)c(CC2CC2)n1: 51
- COc1cccc([C@@H](C)NCCCc2ccccc2Cl)c1.Cl [TECALCET HYDROCHLORIDE]: 28

* * *

- System: HEK-293T
- RUN_DESCRIPTION: Multiplex assay against HEK293T
- Assay type: toxicity, cell-based
- CONDITION_CONTEXT: human, 48 h, 1 µM, compound concentration 1 uM, replicate 2
ASSAY_METRIC: Population Membrane Permeable-Phenotype (%)

- CC[C@H](C)C(=O)O[C@H]1C[C@@H](C)C=C2C=C[C@H](C)[C@H](CC[C@@H]3C[C@@H](O)CC(=O)O3)[C@H]21: 7
- Cc1c(-c2ccc(O)cc2)n(Cc2ccc(OCCN3CCCCCC3)cc2)c2ccc(O)cc12: 4
- CN(C)CC#Cc1ccc(OCCCc2sc(N3CCc4cccc(C(=O)Nc5nc6ccccc6s5)c4C3)nc2C(=O)O)c(F)c1: 19
- CN1CCN(c2ccc(OC(F)(F)F)c(Nc3ncc4c(n3)-c3c(c(C(N)=O)nn3CCO)CC4)c2)CC1: 6

* * *

// Population Mitotic Cells (%) lookup, one value per entry
- Tested on: HEK-293T
- RUN_DESCRIPTION: Multiplex assay against HEK293T
- Type: toxicity, cell-based
- CONDITION_CONTEXT: human, 12 h, 10 µM, compound concentration 10 uM, replicate 2
ASSAY_METRIC: Population Mitotic Cells (%)

- OC1(c2ccc(Cl)cc2)CCN(Cc2c[nH]c3ccccc23)CC1: 36%
- CN(C)C(=O)N[C@H]1CC[C@H](CCN2CCN(c3cccc(Cl)c3Cl)CC2)CC1.Cl [CARIPRAZINE HYDROCHLORIDE]: 16%
- Cc1c(-c2ccc(O)cc2)n(Cc2ccc(OCCN3CCCCCC3)cc2)c2ccc(O)cc12: 11%
- C=CC(=O)Nc1cccc(C(=O)Nc2ccc(Nc3cc(-c4[nH]c(SC)nc4C)ccn3)cc2)c1: 70%
- CN(C)CC#Cc1ccc(OCCCc2sc(N3CCc4cccc(C(=O)Nc5nc6ccccc6s5)c4C3)nc2C(=O)O)c(F)c1: 81%
- COc1cc(-n2cnc3cc(-c4ccc(Cl)cc4)sc3c2=O)ccc1OCCN1CCCC1: 20%
- Cc1nc(-c2ccc(-c3ccc(C(=O)N4CCc5cc6c(cc54)C4(CCN(C)CC4)CO6)cc3)c(C)c2)no1: 11%
- CN1CCCC(n2nc(Cc3ccc(Cl)cc3)c3ccccc3c2=O)CC1.Cl (stereo not drawn) [AZELASTINE HYDROCHLORIDE]: 10%
- COc1cccc([C@@H](C)NCCCc2ccccc2Cl)c1.Cl [TECALCET HYDROCHLORIDE]: 40%
- c1cn2cc(-c3ccc4cn[nH]c4c3)nc(Nc3ccc(N4CCOCC4)cc3)c2n1: 64%
- C=CC(=O)Nc1ccc2ncnc(Nc3ccc(OCc4cccc(F)c4)c(Cl)c3)c2c1.Cc1ccc(S(=O)(=O)O)cc1: 50%
- C=CC(=O)Nc1cc2c(Nc3ccc(F)c(Cl)c3)ncnc2cc1OCCCN1CCOCC1.Cl.Cl [CANERTINIB DIHYDROCHLORIDE]: 91%
- Cn1cc(-c2[nH]c3cc(NC(=O)[C@H](N)C4CCCCC4)cc4c3c2C=NNC4=O)cn1: 57%
- Cc1cc(C)cc(-c2cnc3cc(Cl)c(-c4cccc(O)c4)cc3c2OCCCN)c1: 9%
- Cc1csc2c(N[C@@H](C)CN3CCN(S(=O)(=O)c4ccc(Cl)c(Cl)c4)CC3)ncnc12: 19%
- CN(C)C(=O)/C(C#N)=C/c1ccc(-c2nc3cnc4[nH]ccc4c3n2C2CCCCC2)o1: 67%
- Cl.N#Cc1ccc2[nH]cc(CCCCN3CCN(c4ccc5oc(C(N)=O)cc5c4)CC3)c2c1 [VILAZODONE HYDROCHLORIDE]: 17%
- CN1CCN(c2ccc(OC(F)(F)F)c(Nc3ncc4c(n3)-c3c(c(C(N)=O)nn3CCO)CC4)c2)CC1: 68%

* * *

// Growth Rate lookup, one value per entry
- System: U2OS
- RUN_DESCRIPTION: Incucyte cell viability with U2OS; further: filed as whole numbers so only -1 and 0 and 1 occur
- Format: toxicity, cell-based
- CONDITION_CONTEXT: human, 12 h, 10 µM, compound concentration 10 uM, replicate number 2, timepoint 12 hours
ASSAY_METRIC: Growth Rate

• CCN(CC)CCCCNc1ncc2cc(-c3cc(OC)cc(OC)c3)c(NC(=O)NC(C)(C)C)nc2n1 = 1
• CSc1ccc(C(=O)N[C@@H]2CCCC[C@@H]2NC(=O)CNC(=O)c2cc(C(F)(F)F)ccc2NC(=O)NC(C)C)cc1 = 0
• O=C(O)C[C@H]1CCc2c1[nH]c1ccc(OCc3ccc(C4CCCC4)c(C(F)(F)F)c3)cc21 = 1
• COc1cc(-c2cn([C@H]3CCc4c(F)cccc4N(CC(F)(F)F)C3=O)nn2)ccc1-n1cnc(C)c1 = 1
• O=C(/C=C/N1C[C@H]2C[C@@H]1CN2c1ccccn1)c1ccccc1O = 0
• CN([C@@H]1CCc2c(CC(=O)O)c3cc(S(C)(=O)=O)ccc3n2C1)S(=O)(=O)c1ccc(F)cc1 [CRTH2-negative-control] = 0
• CN(C)c1ncnc(-c2ccc3nc(Nc4cc(CN5CCN(C(=O)CC(F)(F)F)CC5)ccn4)[nH]c3c2)c1Cl = 1
• Cc1cccc(-c2cnc3occ(-c4ccc(C(=O)O)c(C5CCCC5)c4)c3c2)c1 = 0
• CS(=O)(=O)NC[C@H]1CC[C@H](Nc2nc3c(s2)CCSc2ccccc2-3)CC1 = 1
• CNCCC(Oc1ccc(C(F)(F)F)cc1)c1ccccc1.Cl (configuration not stated) [FLUOXETINE HYDROCHLORIDE] = 1
• COc1ccc(Cn2ccc3ccc(C(=O)NO)cc32)cc1 = 0
• CN1CCCC(n2nc(Cc3ccc(Cl)cc3)c3ccccc3c2=O)CC1.Cl (configuration not stated) [AZELASTINE HYDROCHLORIDE] = 1
• C[S+]([O-])c1ccc(-c2nc(-c3ccncc3)c(-c3ccc(F)cc3)[nH]2)cc1 (configuration not stated) = 1
• CC1(C)CCC(C)(C)c2cc(C3(c4ccc(C(=O)O)cc4)OCCO3)ccc21 = 0
• Clc1cccc(-c2nnnn2Cc2cccnc2)c1Cl = 1
• CCCCN1CCC(COC(=O)c2cc(Cl)c(N)c3c2OCCO3)CC1.Cl = 0
• COc1ccc(C2(O)OC(=O)C(c3ccc4c(c3)OCO4)=C2Cc2cc(OC)c(OC)c(OC)c2)cc1 (configuration not stated) = 1

* * *

// Total Cell Count lookup, one value per entry
- Tested on: U2OS
- RUN_DESCRIPTION: Multiplex assay against U2OS
- Type: toxicity, cell-based
- CONDITION_CONTEXT: human, 12 h, 10 µM, compound concentration 10 uM, replicate 1
ASSAY_METRIC: Total Cell Count

* CN(C)C(=O)N[C@H]1CC[C@H](CCN2CCN(c3cccc(Cl)c3Cl)CC2)CC1.Cl [CARIPRAZINE HYDROCHLORIDE] | 78
* Cc1c(-c2ccc(O)cc2)n(Cc2ccc(OCCN3CCCCCC3)cc2)c2ccc(O)cc12 | 190
* COc1cccc([C@@H](C)NCCCc2ccccc2Cl)c1.Cl [TECALCET HYDROCHLORIDE] | 53
* Cc1sc2c(c1C)C(c1ccc(Cl)cc1)=N[C@@H](CC(=O)OC(C)(C)C)c1nnc(C)n1-2 | 1986
* c1cn2cc(-c3ccc4cn[nH]c4c3)nc(Nc3ccc(N4CCOCC4)cc3)c2n1 | 161
* CC(C)(O)CNc1ncc(-c2ccnc(Nc3ccnc(Cl)c3)n2)c(CC2CC2)n1 | 202
* CN(C)C(=O)/C(C#N)=C/c1ccc(-c2nc3cnc4[nH]ccc4c3n2C2CCCCC2)o1 | 167
* O=C1NCN(c2ccccc2)C12CCN(CCCOc1ccc(F)cc1)CC2 [SPIRAMIDE] | 145

* * *

- Test system: U2OS
- RUN_DESCRIPTION: Multiplex assay against U2OS
- Format: toxicity, cell-based
- CONDITION_CONTEXT: human, 48 h, 10 µM, compound concentration 10 uM, replicate 2
Label yes when Population Membrane Permeable-Phenotype (%) < 80%; otherwise no.

- CCn1c(=O)c(-c2ccc(Cl)cc2Cl)cc2cnc(Nc3ccc(N4CCNCC4)c(F)c3)nc21: no
- CC[C@H](C)C(=O)O[C@H]1C[C@@H](C)C=C2C=C[C@H](C)[C@H](CC[C@@H]3C[C@@H](O)CC(=O)O3)[C@H]21: yes
- C[C@@]1(C(=O)Nc2ccc(F)nc2)CCCN1c1nc(Nc2cc(C3CC3)n[nH]2)c2cccn2n1: no
- CN(C)C(=O)N[C@H]1CC[C@H](CCN2CCN(c3cccc(Cl)c3Cl)CC2)CC1.Cl [CARIPRAZINE HYDROCHLORIDE]: yes
- COc1cc2nccc(Oc3ccc(NC(=O)Nc4cc(C)on4)c(Cl)c3)c2cc1OC.O: no
- Cc1nc(-c2ccc(-c3ccc(C(=O)N4CCc5cc6c(cc54)C4(CCN(C)CC4)CO6)cc3)c(C)c2)no1: yes
- C=CC(=O)Nc1cccc(C(=O)Nc2ccc(Nc3cc(-c4[nH]c(SC)nc4C)ccn3)cc2)c1: yes
- CCOCCn1cc(C(=O)Nc2ccc(-n3nc(-c4cccnc4)cc3C(F)(F)F)cn2)ccc1=O: yes
- Cc1[nH]c(/C=C2\C(=O)Nc3ccc(S(=O)(=O)N(C)c4cccc(Cl)c4)cc32)c(C)c1C(=O)N1CCN(C)CC1: no
- O=C1NCN(c2ccccc2)C12CCN(CCCOc1ccc(F)cc1)CC2 [SPIRAMIDE]: yes
- CC(C)(O)CNc1ncc(-c2ccnc(Nc3ccnc(Cl)c3)n2)c(CC2CC2)n1: no
- Cn1cc(-c2[nH]c3cc(NC(=O)[C@H](N)C4CCCCC4)cc4c3c2C=NNC4=O)cn1: yes
- Cc1csc2c(N[C@@H](C)CN3CCN(S(=O)(=O)c4ccc(Cl)c(Cl)c4)CC3)ncnc12: no
